Origin of measurements: ChEMBL document CHEMBL2390929

# ASSAY NAME: Induction of nitric oxide release in phosphate buffer at pH 7.4 at 0.1 mM after 3 hrs by Griess method in presence of 0.5 mM of N-acetylcysteine
# Assay type: physicochemical
# RUN CONDITIONS: pH 7.4, 3 h, 100 µM
EXPERIMENTAL ENDPOINT: Activity (mol/mol)
State just the number; it will be interpreted in mol/mol.

Entry CCn1c(SC/C(=N/O)c2ccccc2)nnc1-c1ccc(OC)c(OC)c1 has what Activity?
0.2

Now consider O/N=C(/CSc1nnc(-c2ccccc2)n1-c1ccccc1)c1ccccc1 and answer again.
0.12

Now consider COc1cc(-c2nnc(SC/C(=N/O)c3ccccc3)n2-c2ccccc2)cc(OC)c1OC and answer again.
0.12

Now consider COc1ccc(-c2nnc(SC/C(=N/O)c3ccccc3)n2-c2ccccc2)cc1OC and answer again.
0.18

Now consider CCn1c(SC/C(=N/O)c2ccccc2)nnc1-c1cc(OC)c(OC)c(OC)c1 and answer again.
0.12
